Listed here: items and their measured Ki.
# test-target: GSK-3β (AA 1-420) (Homo sapiens (Human))
# Sequence (P49841 whole entry, species assumed, the tested form may be a part): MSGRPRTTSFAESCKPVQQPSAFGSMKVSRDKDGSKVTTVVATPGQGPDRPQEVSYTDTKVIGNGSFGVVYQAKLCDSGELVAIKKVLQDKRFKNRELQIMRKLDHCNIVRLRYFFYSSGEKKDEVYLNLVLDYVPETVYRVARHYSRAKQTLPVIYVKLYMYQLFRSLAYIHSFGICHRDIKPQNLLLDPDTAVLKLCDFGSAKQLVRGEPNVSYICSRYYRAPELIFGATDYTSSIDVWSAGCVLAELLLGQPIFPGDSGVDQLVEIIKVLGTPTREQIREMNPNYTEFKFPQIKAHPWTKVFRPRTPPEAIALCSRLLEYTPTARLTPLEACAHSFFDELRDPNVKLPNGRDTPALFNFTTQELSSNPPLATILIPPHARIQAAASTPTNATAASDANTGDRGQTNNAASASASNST

molecule	test-target	Ki
CN1CCN(c2cc(Nc3n[nH]c4ccc(F)cc34)nc(C3CCCCC3)n2)CC1 [Compound I-2]	GSK-3β (AA 1-420) (Homo sapiens (Human))	25 to 500 nM
Cc1cc(Nc2n[nH]c3ccc(F)cc23)nc(C2CCCC2)n1 [Compound I-14]	GSK-3β (AA 1-420) (Homo sapiens (Human))	< 25 nM

----------
Listed below: log10(IC50) values for each entry.
# test-target: GSK3β TYR 216 (Homo sapiens (Human))
# Sequence (P49841 whole entry): as the sequence (P49841 whole entry, species assumed, the tested form may be a part) above
# protocol-details: GSK3β p-TYR inhibition assay (western blotting of Jurkat cells)
# condition-details: compound incubated o/n, western blot, read-out: GSK3b pTYR 216: IC50
attribute-measured: log10(IC50) (log10 of the value in nM)

smiles-repr	attribute-measured	value
Cc1nc(C2CCCCC2)nc(Nc2n[nH]c3ncc(F)cc23)c1C	log10(IC50)	1.11
Cc1cc(Nc2n[nH]c3ncc(F)cc23)nc(C2CCCC2)n1	log10(IC50)	1.68
Cc1cc(Nc2n[nH]c3ncc(F)cc23)nc(C2CCCCC2)n1	log10(IC50)	0.78
Cc1cc(Nc2n[nH]c3ncc(F)cc23)nc([C@H]2CCCC[C@@H]2C)n1	log10(IC50)	2.48
Cc1cc(Nc2n[nH]c3ccc(F)cc23)nc(C2CCOCC2)n1	log10(IC50)	2.30
Cc1nc(C2CCOCC2)nc(Nc2n[nH]c3ncc(F)cc23)c1C	log10(IC50)	2.90
Cc1cc(Nc2n[nH]c3ccc(F)cc23)nc(C2CCCCC2)n1	log10(IC50)	1.40
Cc1cc(Nc2n[nH]c3ncc(F)cc23)nc(C2CCCCCC2)n1	log10(IC50)	1.00
Cc1nc(Nc2n[nH]c3ncc(F)cc23)cc(C2CCC(F)(F)CC2)n1	log10(IC50)	1.30
CC(C)(O)c1cc(Nc2n[nH]c3ncc(F)cc23)nc(C2CCCCC2)n1	log10(IC50)	1.30
Cc1cc(Nc2n[nH]c3ncc(F)cc23)nc(C2CCOCC2)n1	log10(IC50)	1.48

----------
# test-target: GSK3α TYR 279 (Homo sapiens (Human), UniProt P49840)
# Sequence (P49840 whole entry): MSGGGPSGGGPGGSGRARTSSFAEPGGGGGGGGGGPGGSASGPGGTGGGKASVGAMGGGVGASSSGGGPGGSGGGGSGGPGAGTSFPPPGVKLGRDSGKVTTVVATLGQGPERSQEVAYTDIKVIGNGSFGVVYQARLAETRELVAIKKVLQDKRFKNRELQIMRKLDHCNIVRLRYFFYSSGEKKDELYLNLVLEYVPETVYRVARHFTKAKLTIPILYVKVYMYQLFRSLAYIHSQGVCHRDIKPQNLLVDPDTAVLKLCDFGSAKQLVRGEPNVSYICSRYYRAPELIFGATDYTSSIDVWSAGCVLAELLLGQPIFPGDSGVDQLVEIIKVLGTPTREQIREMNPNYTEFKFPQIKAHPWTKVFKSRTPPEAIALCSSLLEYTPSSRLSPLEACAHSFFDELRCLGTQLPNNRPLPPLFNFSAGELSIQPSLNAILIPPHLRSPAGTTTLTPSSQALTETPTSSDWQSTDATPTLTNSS
# protocol-details: GSK-3α p-TYR inhibition assay (western blotting of Jurkat cells)
# condition-details: compound incubated o/n, western blot, read-out: GSK3a pTYR 279: IC50
Output y for records whose IC50 is lower than 2 nM, n for records at or above 2 nM.

smiles-repr	answer-label
Cc1cc(Nc2n[nH]c3ncc(F)cc23)nc([C@H]2CCCC[C@@H]2C)n1	y
Cc1cc(Nc2n[nH]c3ncc(F)cc23)nc(C2CCOCC2)n1	n
Cc1nc(C2CCOCC2)nc(Nc2n[nH]c3ncc(F)cc23)c1C	n
CC(C)(O)c1cc(Nc2n[nH]c3ncc(F)cc23)nc(C2CCCCC2)n1	n
Cc1nc(Nc2n[nH]c3ncc(F)cc23)cc(C2CCC(F)(F)CC2)n1	y
Cc1cc(Nc2n[nH]c3ncc(F)cc23)nc(C2CCCCC2)n1	y
Cc1cc(Nc2n[nH]c3ccc(F)cc23)nc(C2CCOCC2)n1	n
Cc1cc(Nc2n[nH]c3ncc(F)cc23)nc(C2CCCCCC2)n1	y
Cc1nc(C2CCCCC2)nc(Nc2n[nH]c3ncc(F)cc23)c1C	y
